Consider the following compounds; for each one, report its Ratio CC50/IC50.
- Experiment: Selectivity index, ratio of CC50 for African green monkey Vero cells infected with SARS-CoV-2 betaCoV/KOR/KCDC03/2020 to IC50 for SARS-CoV-2 betaCoV/KOR/KCDC03/2020
No unit in the answer, please; the number alone is enough.

Problem: Can you look up the measured Ratio CC50/IC50 of O=C(CN1C(C(=O)c2ccc(F)c(Cl)c2)=C(O)c2ccccc2S1(=O)=O)Nc1ccc(C(F)(F)F)cc1 for me?
Result: 11.1

Problem: Try the compound O=C(CN1C(C(=O)c2ccc(Cl)cc2)=C(O)c2ccccc2S1(=O)=O)Nc1ccc(C(F)(F)F)cc1
Result: 6

Problem: Try the compound COc1ccc(C(=O)C2=C(O)c3ccccc3S(=O)(=O)N2CC(=O)Nc2cccc(OC(F)(F)F)c2)cc1
Result: 2

Problem: Try the compound N#Cc1cccc(C(=O)C2=C(O)c3ccccc3S(=O)(=O)N2CC(=O)Nc2cccc(OC(F)(F)F)c2)c1
Result: 1.6
